B1: COX4I1 (parent)
chain: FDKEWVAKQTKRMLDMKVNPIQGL

Variants of: B1
assay_summary: protein stability index of a GFP-peptide fusion (GPS, HEK-293T) (PSI 1-6); higher = more stable;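 further: lentivirally expressed fusions sorted by FACS into six bins by GFP to DsRed ratio, PSI derived from sequencing read proportions per bin multiplied by bin number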
condition_label: c terminus: a fixed tail appended
Binary classification by protein stability index, with 2 as an inclusive lower bound for yes; all other cases are no.

F1T yes

// query Is protein stability index at least 2? Consider M16V
// result no

// query Reported protein stability index at or above 2? T10Q
// result no

// query Kindly determine if protein stability index recorded for M13T is above or exactly 2.
// result no

// query Does M13F have a reported protein stability index of at least 2?
// result yes

// query Please indicate if the recorded protein stability index for P20D meets or exceeds 2.
// result no
